Entries and their RFP signal change
- Test details: GFP drop in mixed WT/humanized-ribosome E. coli culture – GFP/RFP fluorescence, OD600, single point, bacterial rRNA inhibitor project, primary screen (AID 720706)
- Condition parameters: E. coli WT GFP vs humanized-ribosome RFP mutants, 24 h; measured here: RFP humanized mutant strains, DMSO median 0, no signal -100, concentration not given here
Among all 350,000 compounds or so, about 5,500 (1.6%) were called active. The list comes from a sample in which actives are over-represented; it also holds close analogues and randomly drawn compounds.
Property name: RFP signal change (%)

- Compound: "CC(C)(C)c1ccc(CCC2OCC(CN3CCOCC3)O2)cc1 (stereo not given)"
  Property name: "RFP signal change"
  Units symbol: "%"
  Observed result: -5.34
- Compound: "COc1ccccc1S(=O)(=O)N[C@@H]1C=C[C@H](CC(=O)N2CCN(C)CC2)O[C@@H]1CO"
  Property name: "RFP signal change"
  Units symbol: "%"
  Observed result: -3.5
- Compound: "CC(CN1CCOCC1)OC(=O)c1ccc(C(C)(C)C)cc1 (stereo not given)"
  Property name: "RFP signal change"
  Units symbol: "%"
  Observed result: 2.33
- Compound: "CC(C)c1ccc(NS(=O)(=O)c2cn(C)c(=O)n(C)c2=O)cc1"
  Property name: "RFP signal change"
  Units symbol: "%"
  Observed result: -3.23
- Compound: "CC(C)NC(=O)N(C)C[C@H]1Oc2ccc(NS(C)(=O)=O)cc2C(=O)N(C)C[C@@H]1C"
  Property name: "RFP signal change"
  Units symbol: "%"
  Observed result: -2.3

###

- Test details: GFP drop in mixed WT/humanized-ribosome E. coli culture – GFP/RFP fluorescence, OD600, single point, bacterial rRNA inhibitor project, primary screen (AID 720706)
- Condition parameters: E. coli WT GFP vs humanized-ribosome RFP mutants, 24 h; measured here: RFP humanized mutant strains, DMSO median 0, no signal -100, concentration not given here
Hit rate of the full screen: of about 350,000 compounds, about 5,500 (1.6%) were called active. Many of the other results were omitted from the sample, so actives are more common in it than they were.
Property name: RFP signal change (%)

- Smiles record: "CC(C)NC(=O)N(C)C[C@@H]1OCc2ccccc2-c2c(n(C)c3ccccc23)C(=O)N([C@@H](C)CO)C[C@H]1C"
  Observed result: -8.97
- Smiles record: "CCCNC(=O)N1[C@H](CO)[C@@H](c2ccc(-c3ccc(C(=O)N(C)C)cc3)cc2)[C@@H]1C#N"
  Observed result: -2.83
- Smiles record: "CC[C@H](NC(=O)[C@H](Cc1ccccc1)NC(=O)[C@H]1O[C@@H](n2cnc3c(=O)[nH]c(N)nc32)[C@H](O)[C@@H]1O)c1ccccc1"
  Observed result: 2.61
- Smiles record: "C[C@@H]1CN([C@H](C)CO)C(=O)c2cc(NS(C)(=O)=O)ccc2O[C@H]1CN(C)C(=O)Nc1cccc2ccccc12"
  Observed result: 2.43
- Smiles record: "COc1ccc(S(=O)(=O)Nc2ccc3c(c2)CC(=O)N([C@H](C)CO)C[C@H](C)[C@@H](CN(C)C(=O)NC(C)C)O3)cc1"
  Observed result: -0.682
- Smiles record: "C[C@@H]1CCCCO[C@H](CN(C)C(=O)Nc2ccccc2)[C@H](C)CN([C@@H](C)CO)C(=O)c2cc(N(C)C)ccc2O1"
  Observed result: -1.91
- Smiles record: "CCc1noc(C)c1C(=O)Nc1nc(-c2ccccc2)cs1"
  Observed result: -5.38
- Smiles record: "CCc1noc(C)c1C(=O)OCC(=O)c1ccc(NC(=O)CC(C)C)cc1"
  Observed result: 4.13
- Smiles record: "O=C(COc1ccc(Cl)cc1Cl)N/N=C/c1ccccn1"
  Observed result: 0.0022
- Smiles record: "COc1ccc(CN(C)C[C@@H]2Oc3ccc(NS(=O)(=O)c4cn(C)cn4)cc3C(=O)N([C@@H](C)CO)C[C@H]2C)cc1"
  Observed result: -0.875
- Smiles record: "O=C(Nc1ccc(C(F)(F)F)cc1)c1cccc(-n2cnnn2)c1"
  Observed result: -9.02
- Smiles record: "COCC(=O)N[C@H]1C=C[C@H](CC(=O)N2CCCCC2)O[C@H]1CO"
  Observed result: 0.319
- Smiles record: "CS(=O)(=O)N(CC(=O)N/N=C/c1ccccn1)c1ccc(Oc2ccccc2)cc1"
  Observed result: -0.663
- Smiles record: "CCC(=O)N1C[C@@H](C)[C@H](OC)CN(C)C(=O)c2ccc(NC(=O)c3cc(C)on3)cc2OC[C@H]1C"
  Observed result: -1.23
- Smiles record: "COc1ccc(CCNC(=O)CN(c2ccccc2)S(C)(=O)=O)cc1"
  Observed result: 2.52
- Smiles record: "C[C@H]1CCCCO[C@H](CN(C)CC2CCCCC2)[C@@H](C)CN([C@@H](C)CO)C(=O)c2cc(NS(=O)(=O)c3ccc(Cl)cc3)ccc2O1"
  Observed result: -17.5
- Smiles record: "COC(=O)C[C@@H]1C[C@@H]2c3cc(NC(=O)NC4CCCC4)ccc3O[C@@H]2[C@@H](CO)O1"
  Observed result: -0.687

###

- Test details: GFP drop in mixed WT/humanized-ribosome E. coli culture – GFP/RFP fluorescence, OD600, single point, bacterial rRNA inhibitor project, primary screen (AID 720706)
- Condition parameters: E. coli WT GFP vs humanized-ribosome RFP mutants, 24 h; measured here: OD600 growth, DMSO median 0, no signal -100
In all, about 350,000 compounds went through this assay and about 5,500 (1.6%) were called active. This excerpt belongs to a sample that is enriched for actives.

- Molecule: "CN1c2ccc([N+](=O)[O-])cc2C(C)(C)C12C=Cc1cc(C(=O)O)ccc1O2 (centres undefined)"
  OD600 change (%): -21.4
- Molecule: "CO[C@@H]1CN(C)C(=O)c2cc(NC(=O)Nc3ccc4c(c3)OCO4)ccc2OC[C@@H](C)NC[C@@H]1C"
  OD600 change (%): 10.8
- Molecule: "COc1ccc(NC(=O)N(C)C[C@@H]2Oc3ncc(-c4ccc(C#N)cc4)cc3C(=O)N([C@@H](C)CO)C[C@H]2C)cc1"
  OD600 change (%): -0.24
- Molecule: "OC[C@@H]1CN(Cc2cccs2)C[C@H](n2cnc3c(NC4CCCC4)ncnc32)O1"
  OD600 change (%): -4.54
- Molecule: "COc1ccc2c3c(n(C)c2c1)[C@@H](CO)N(S(C)(=O)=O)CC31CCN(C(=O)C2CCC2)CC1"
  OD600 change (%): -7.74
- Molecule: "COc1ccc2c3c(n(C)c2c1)[C@@H](CO)N(C(=O)C1CC1)CC31CN(C(=O)C2CCOCC2)C1"
  OD600 change (%): 5.66
- Molecule: "O=S(=O)(Cc1ccccc1)N1CCCCN2[C@@H](CO)[C@H](c3ccc(-c4ccccc4)cc3)[C@@H]2C1"
  OD600 change (%): -41.9
- Molecule: "O=C(O)Cc1ccc(NC(=O)Nc2cccc3ccccc23)cc1"
  OD600 change (%): 0.56
- Molecule: "CCOc1ccc(C2C3=C(CCCC3=O)N(CC(=O)O)C3=C2C(=O)CCC3)cc1"
  OD600 change (%): 6.44
- Molecule: "COc1ccc(NC(=O)N(C)C[C@@H]2Oc3ccc(NS(=O)(=O)c4ccc(C)cc4)cc3CC(=O)N([C@@H](C)CO)C[C@H]2C)cc1"
  OD600 change (%): -3.65
- Molecule: "CN1C[C@@H]2[C@H](c3ccccc31)[C@@H](CO)N2C(=O)Nc1ccccc1"
  OD600 change (%): -4.19
- Molecule: "CC(CNC(=O)Cn1cnc2c(OCc3ccccc3)ncnc21)c1ccccc1 (centres undefined)"
  OD600 change (%): 14.8
- Molecule: "Cc1ccc(-c2csc(NC(=O)C3=COCCO3)n2)cc1C"
  OD600 change (%): -55.4
- Molecule: "O=C(Cc1cccc2ccccc12)NNC(=O)Nc1ccc(Cl)cc1"
  OD600 change (%): -2
- Molecule: "O=C(O)c1ccc(NS(=O)(=O)c2cccc3nsnc23)cc1"
  OD600 change (%): 9.27
- Molecule: "CCc1noc(C)c1C(=O)Nc1nc(-c2ccccc2)cs1"
  OD600 change (%): -24.6
- Molecule: "C/C=C/c1cnc2c(c1)C(=O)N([C@H](C)CO)C[C@H](C)[C@@H](CN(C)CC1CCOCC1)O2"
  OD600 change (%): 16.9
- Molecule: "Cc1ccccc1NC(=O)CCOc1ccccc1"
  OD600 change (%): -4.25
- Molecule: "Cc1ccc(S(=O)(=O)CCC(=O)OCc2ccccc2)cc1"
  OD600 change (%): 1.2
- Molecule: "CCNC(=O)[C@@H]1[C@@H](CO)[C@@H]2Cn3c(ccc(-c4ccncc4)c3=O)[C@@H]2N1Cc1cc(F)ccc1F"
  OD600 change (%): 8.82
- Molecule: "Cc1ccc(NC(=S)NC(NC(=O)Cc2cccc3ccccc23)C(Cl)(Cl)Cl)cc1 (centres undefined)"
  OD600 change (%): 7.34
- Molecule: "C[C@@H]1CN([C@@H](C)CO)C(=O)c2cccc(NC(=O)c3cnccn3)c2O[C@H]1CN(C)S(=O)(=O)c1cccs1"
  OD600 change (%): 6.99
- Molecule: "COc1ccc2c3c(n(C)c2c1)[C@H](CO)NCC31CN(Cc2cc(F)ccc2F)C1"
  OD600 change (%): 1.28
- Molecule: "CCCNC(=O)c1cc2c(c(-c3cccc(-c4ccc(C#N)cc4)c3)n1)[C@@H](CCO)N(C(=O)CC)C2"
  OD600 change (%): -16.6
- Molecule: "COc1ccccc1N1CCN(Cc2ccc(OC)c3ccccc23)CC1"
  OD600 change (%): -8.32
- Molecule: "CC(C)NC(=O)Nc1ccc2c(c1)C(=O)N([C@@H](C)CO)C[C@H](C)[C@H](CN(C)C(=O)Nc1ccc(F)cc1)OCCCC[C@@H](C)O2"
  OD600 change (%): 11.5
- Molecule: "Cc1cccc(OCCC(=O)Nc2ccccc2C(N)=O)c1"
  OD600 change (%): -10.5
- Molecule: "CCOC(=O)C1(CCOc2ccccc2)CCN(Cc2cc(OC)cc(OC)c2)CC1"
  OD600 change (%): -25.8
- Molecule: "CCCNC(=O)c1cc2c(c(-c3cccc(-c4ccc(F)cc4)c3)n1)[C@@H](CCO)N([S@](=O)C(C)(C)C)C2"
  OD600 change (%): -6.59
- Molecule: "Cc1cc(C(=O)O)ccc1[N+](=O)[O-]"
  OD600 change (%): -5.09
- Molecule: "CCc1noc(C)c1C(=O)OCC(=O)c1ccc(NC(=O)CC(C)C)cc1"
  OD600 change (%): -38.8
- Molecule: "CCOC(=O)C1(CCOc2ccccc2)CCN(Cc2ccc(C#CCCO)cc2)CC1"
  OD600 change (%): -4.44
- Molecule: "C[C@@H]1CCCCO[C@@H](CN(C)C(=O)c2ccccc2)[C@H](C)CN([C@@H](C)CO)C(=O)c2cc(NS(=O)(=O)c3cn(C)cn3)ccc2O1"
  OD600 change (%): 4.12
- Molecule: "COc1ccccc1N1CCN(Cc2cc(OC)c3c(c2)OCO3)CC1"
  OD600 change (%): -4.28
- Molecule: "Fc1cccc2ncnc(OCc3ccccc3)c12"
  OD600 change (%): -18
- Molecule: "O=C(CSc1nnnn1-c1ccc(O)cc1)c1ccc(F)cc1"
  OD600 change (%): -18.1
- Molecule: "O=S(=O)(Nc1ccc(OC(F)(F)F)cc1)c1cccc2nonc12"
  OD600 change (%): -15.7
- Molecule: "CCOC(=O)c1c(N)sc2c1CCCC2=O"
  OD600 change (%): -0.897
- Molecule: "COCC(=O)N1CC2(C1)CN(C(=O)COC)[C@@H](CO)c1c2c2ccc(OC)cc2n1C"
  OD600 change (%): 7.89
